Target: recombinant SARS-CoV Spike protein (RBD, His tag) (SARS-CoV, UniProt P59594 306-527)
Experiment: iQue flow cytometry, antigen-coated beads
Reported endpoint: pEC50
Scale for pEC50: -log10 of concentration given in mol/L; no unit attached.

Past entries and their recorded results:
Binder	pEC50
NI-607.649_B11 (antibody, V domains shown) VH: QVQLVQSGAEVKKPGSSVKVSCKASGGTFSNYAISWVRQAPGQGLEWMGGIIPIFGTANYAQKFQGRVTITADESTSTAYMELSSLRSEDTAVYYCAGDRWYYDSSGYPTPDEYFQHWGQGTQVTVSS VL: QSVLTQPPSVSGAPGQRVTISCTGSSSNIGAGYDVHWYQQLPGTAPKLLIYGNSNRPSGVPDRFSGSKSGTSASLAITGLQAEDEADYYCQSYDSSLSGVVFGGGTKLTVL	8.77
NI-607.761_B7 (antibody, V domains shown) VH: EVQLVESGGGVVQPGRSLRLSCAASGFTFTRYGMHWVRQAPGKGLEWVAVIWYDGNNKNYEDSVRGRFTISRDNSKNTLFLQMNSLRAEDTAVYYCARGRRGGYSYGLFDYWGQGILVTVSS VL: AIRMTQSPSSLSASVGDRVTITCQASQDISNYLNWYQQKPGKAPKLLIYDASNLETGVPSRFSGSGSGTDFTFTISSLQPEDVATYSCQQYDNLPLTFGGGTKVEIK	6.70

Would you kindly look at the next entry?
Item: NI-607.531_E7 (antibody, V domains shown, also called F31 E7) VH: EVQLVESGGGVVQPGRSLRLSCAASGFTFNFYSMHWVRQVPGKGLEWVAVISFDGSTKHYAESLRGRFAVSRDNSKSTLYLQMNSLRPEDTAVYYCASPPLSPIPAAGTPLDYWGQGTLVTVSS VL: EIVMTQSPDSLAVSLGERATINCKSSQSIFYRSDDKDFLAWYQQKPGQPPKLLISWASTRESGVPDRFSGSGSGTDFTLTISSLQAEDVAVYYCQQFYYTPFTFGPGTKLEIK | pEC50: 6.22
